The origin of these recorded values is the RNAGym collection of RNA variant scans (doi:10.7554/elife.80360).

Items are presented alongside their recorded self-cleavage.
B1: HDV Ribozyme (parent)
chain: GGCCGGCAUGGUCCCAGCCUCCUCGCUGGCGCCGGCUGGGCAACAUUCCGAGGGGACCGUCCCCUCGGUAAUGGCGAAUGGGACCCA

# Variants of: B1
# assay-protocol: self-cleavage, relative activity (ratio to wild type); higher = more cleavage; co-transcriptional
assay-readout: self-cleavage

>  <sequence-input>
GGCCGGCAUGGUCCCAGCCUCCUCGCUGGCGCCGGUUGGGCAACAUUCCGAGGGGACCGUCCCCUCAGUAAUGGCGAAUGGGACCCA [C36U G67A]

>  <observed-result>
0.712

$$$$
>  <sequence-input>
GGCCGGCAUGGUCCCAGCCUGCUCGCUGGCGCCGGCUGGGCAACAUUCCGAGGGGACCGUCCACUCGGUAAUGGCGAAUGGGACCCA [C21G C63A]

>  <observed-result>
0.106

$$$$
>  <sequence-input>
GGCCGGCAUGGUCCCAGCCUCCCCGCUGGCGCCGGCUGGGCACCAUUCCGAGGGGACCGUCCCCUCGGUAAUGGCGAAUGGGACCCA [U23C A43C]

>  <observed-result>
0.465

$$$$
>  <sequence-input>
GGCCGGCAUGGUCCCAGCCUCCUCGCGGGCGCCGGCUGGGCAACAUUCCGAGGGGACCGUCCCUUCGGUAAUGGCGAAUGGGACCCA [U27G C64U]

>  <observed-result>
0.72

$$$$
>  <sequence-input>
GGCCGGCGUGGUCCCAGCCUCCUCGCUGGCGCCGGCUGGGCAACAUUCCGAGGGGACCGUCCCCUCGGUAAUGUCGAAUGGGACCCA [A8G G74U]

>  <observed-result>
0.111

$$$$
>  <sequence-input>
GGCCGGCCUGGUCCCAGCCUCCUCGCUGGCGCCGGCUGGGCAACAUUCCGAGGGGACCGUCCCCUCGGUAAUGGCCAAUGGGACCCA [A8C G76C]

>  <observed-result>
0.705

$$$$
>  <sequence-input>
GGCCGGCAUGGUCCCAGCAUCCUCGCUGGCGCCGGCUGGGCAACAUUCCGAGGGGACCGUCCCCUCGGUAAUGGCGAAAGGGACCCA [C19A U79A]

>  <observed-result>
0.0773

$$$$
>  <sequence-input>
GGGCGGCAUGGUCCCAGCCUCCUCGCUGGCGCCGGCUGGGCAACAUUCCGAGGGGACCGUUCCCUCGGUAAUGGCGAAUGGGACCCA [C3G C61U]

>  <observed-result>
0.729

$$$$
>  <sequence-input>
GGCCGGCAUGGUCCCAGCCCCCUCGCUGGCGCCGGCUGGGCAACAUUCCGAGGGGACCGUCCACUCGGUAAUGGCGAAUGGGACCCA [U20C C63A]

>  <observed-result>
0.0898

$$$$
>  <sequence-input>
GGCCUGCAUGGUCCCAGCCUCCUCGCUGGCGCCGGCUGGGCAACAUUCCGAGGGGACCGUCCCCUCGGUAAUGGCGAAUGGGAACCA [G5U C84A]

>  <observed-result>
0.302

$$$$
>  <sequence-input>
GGCCGGCAUGGUCCCAGCCUCCUCGCUGGCGCCGGCUGGGCAACAUUCCGAGGGGACCGUCCCCUCGGUAAUGACGAAUGUGACCCA [G74A G81U]

>  <observed-result>
0.12

$$$$
